Assay: Pharmacokinetics, single oral gavage, Yucatan mini-pig
Type: in vivo, female Yucatan Miniature Swine
Conditions: female, Yucatan, pig (minipig), plasma; PO 10 mg/kg, 0.5 hr; read-out: Average Concentration of HGT3711

{"compound": "Cc1cc(Cl)c(COc2cccc3c(-n4cc(F)cn4)cc(C)nc23)c(Cn2cccc(C#N)c2=O)n1 [CFMQ]", "reading-unit": "ng/mL", "concentration at 0.5 hr": 596}

====

Assay: Plasma kinetics, intravenous, Sprague-Dawley rats
Format: in vivo, female Sprague-Dawley rats
Conditions: female, Sprague-Dawley, rat, plasma; IV 1 mg/kg
Method: CFMQ (HGT3711) was administered to fasted female Sprague-Dawley rats by a single intravenous injection at 1.0 mg/kg, formulated in 100% PEG200 (Table 2.6.5.X, Study 10SHIRUSP11). […] Plasma concentrations of CFMQ (HGT3711) were determined by LC-MS/MS and concentrations below the limit of quantitation (1 ng/mL) were assigned a value of zero for pharmacokinetic analysis. […]
readout-name: C0 (ng/mL)

{"sample-smiles": "Cc1cc(Cl)c(COc2cccc3c(-n4cc(F)cn4)cc(C)nc23)c(Cn2cccc(C#N)c2=O)n1", "readout-name": "C0", "reported": 747}

====

Test: Pharmacokinetics, single oral gavage, 2 formulations, Wistar and Sprague-Dawley rats
Type: in vivo
Settings: female, Wistar, rat, plasma, po, 15 mg/kg, Formulation 1, Wistar (Female)

{"sample-smiles": "Cc1cc(Cl)c(COc2cccc3c(-n4cc(F)cn4)cc(C)nc23)c(Cn2cccc(C#N)c2=O)n1", "half-life [h]": 3.1}

====

Assay: Pharmacokinetics, single oral gavage, 2 formulations, Wistar and Sprague-Dawley rats
Type: in vivo
Settings: male, Wistar, rat, plasma, po, 15 mg/kg, Formulation 1, Wistar (Male)

{"sample-smiles": "Cc1cc(Cl)c(COc2cccc3c(-n4cc(F)cn4)cc(C)nc23)c(Cn2cccc(C#N)c2=O)n1", "half-life [min]": 100}

====

Molecular target: human B2-bradykinin receptor (Homo sapiens)
Sequence (P30411 1-391): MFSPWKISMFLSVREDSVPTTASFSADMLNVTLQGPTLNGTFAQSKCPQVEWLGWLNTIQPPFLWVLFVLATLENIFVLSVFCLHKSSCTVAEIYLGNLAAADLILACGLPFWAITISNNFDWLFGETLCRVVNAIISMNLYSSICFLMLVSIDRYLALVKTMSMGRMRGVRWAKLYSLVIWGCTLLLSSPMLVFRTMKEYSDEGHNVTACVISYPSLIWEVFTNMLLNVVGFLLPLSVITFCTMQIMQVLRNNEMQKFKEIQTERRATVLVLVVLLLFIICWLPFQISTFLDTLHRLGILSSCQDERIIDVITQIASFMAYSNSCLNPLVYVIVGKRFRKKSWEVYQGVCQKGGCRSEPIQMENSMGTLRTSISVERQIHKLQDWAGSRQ
Test: Calcium mobilization assay in human fibroblast (HF15) cells
Format: cell-based
Set-up: endogenous in cells; host or cells: HF15 human fibroblasts
Conditions: 25 minutes pre-incubation at 25° C., read-out: IC50, inhibition of bradykinin-induced calcium mobilization
pIC50: −log10 of the molar value.
readout-name: pIC50

{"sample-smiles": "Cc1cc(Cl)c(COc2cccc3c(-n4cc(F)cn4)cc(C)nc23)c(Cn2cccc(C#N)c2=O)n1", "reported": 8.53}
